Source of measurements: PubChem BioAssay AID624126

- Tested system: Muscarinic acetylcholine receptor M4 (Homo sapiens)
- Test summary: human M4 muscarinic receptor positive allosteric modulators, primary screen, CHO-K1 cells, Fluo-8 calcium fluorescence (AID 624126)
- Run conditions: CHO-K1 hM4/Gqi5, Fluo-8 calcium fluorescence, ACh EC20; at 3 µM; active compounds read high; 0% = ACh EC20, 100% = maximal ACh
Among all 360,000 compounds or so, about 1,400 (0.39%) were called active. The sample holds actives, similar compounds and a random draw of the others, so the mix is not that of the screen.
activation listing for selected compounds.
Readout type: activation (%)

| Compound | Readout number |
| --- | --- |
| COc1ccc(NC(=O)C(C)SCc2ccccc2)cc1 (stereo unspecified) | 0.44 |
| COC(=O)c1ccc(OC(=O)c2nn(C)cc2Cl)c(OC)c1 | 22 |
| CN1CCN(C(=O)N2c3ccccc3CCc3ccccc32)CC1 | -20.3 |
| CCn1c(SCC(=O)NC2CC2)nnc1-c1ccccn1 | -4.53 |
| Cc1ccc2cccc(O)c2[n+]1[O-] | 16.2 |
| CSc1nc(C)cc(SC(C(C)=O)C(=O)Nc2ccccc2)n1 (stereo unspecified) | 22.6 |
| Cc1cc(C)c(OCCN2CC(C)OC(C)C2)c(Br)c1 (stereo unspecified) | 20.4 |
| O=C(CSc1nnc(-c2c[nH]c3ccccc23)n1-c1ccc(F)cc1)NCc1ccco1 | 32.8 |
| CCOC(=O)c1c(CN(C)C)n(-c2ccccc2)c2cc(Br)c(O)cc12 | 1.89 |
| CSc1ncccc1C(=O)Nc1cccc(S(=O)(=O)N2CCOCC2)c1 | 7.64 |
| COc1ccc(CSc2nnnn2-c2ccc(O)cc2)cc1F | -3.48 |
| COc1ccc(C(=O)CN2C(=O)NC3(CCc4ccccc43)C2=O)c(OC)c1 (stereo unspecified) | 22.9 |
| CC(C)(C(=O)N1CCC1(C)C(=O)NS(=O)(=O)c1ccc(Br)cc1)c1ccccc1 (stereo unspecified) | 1.17 |
| Cc1cccc(N(C)C(=O)c2cc(S(=O)(=O)N3CCCCC3)c[nH]2)c1 | -3.91 |
| CN1CCN(S(=O)(=O)c2cccc(C(=O)Nc3cccc(S(N)(=O)=O)c3)c2)CC1 | -0.95 |
| CCn1c(SCC(=O)Nc2cc(C)ccc2C)nnc1-c1cnccn1 | 35.7 |
| Cc1ccccc1CCNC(=O)C1CCC(=O)N(Cc2ccc(Cl)cc2)C1 (stereo unspecified) | -4.94 |
| OCCCNc1nccc(-c2cc(Nc3cccc(Cl)c3)ncn2)n1 | 4.57 |
| CCOC(=O)c1ccc(S(=O)(=O)N(CCO)Cc2cc3cc(OC)c(OC)cc3[nH]c2=O)cc1 | -7.09 |
| Cc1c(C(=O)c2cccc([N+](=O)[O-])c2)c2ccccn2c1CCC#N | -5.93 |
| Cc1ccc(C(=O)CN2C(=O)NC3(CCc4ccccc43)C2=O)c(C)c1 (stereo unspecified) | -0.51 |
| O=C(c1cnccn1)N1CCN(S(=O)(=O)c2cccc(Cl)c2)CC1 | 1.28 |
| CCN(CC)S(=O)(=O)c1ccc(NC(=O)c2cccnc2Cl)c(NC(=O)c2cccnc2Cl)c1 | 2.53 |
| COc1ccc(-n2c(C)cc(C(=O)CN3C(=O)NC4(CCc5ccccc54)C3=O)c2C)cc1 (stereo unspecified) | -7.44 |
| Cc1cc(C)c(S(=O)(=O)c2ccccc2)c(OC(=O)c2c(F)cccc2Cl)n1 | 1.34 |
| COc1cccc(CNCCc2c[nH]c3ccccc23)c1OCc1ccccc1F | -8.42 |
